Reference source for all entries: paper doi:10.1101/2020.02.10.936898v1

pIC50: −log10 of the molar value.
Listed here: compounds with reported pIC50 for HCoV-NL63 M^pro (Human coronavirus NL63).
Measured Endpoint: pIC50

* O=C(/C=C/c1ccccc1)N[C@@H](Cc1ccc(F)cc1)C(=O)N[C@@H](C[C@@H]1CCNC1=O)C(=O)C(=O)NCc1ccccc1 [11m] | < 4.30
* O=C(/C=C/c1ccccc1)N[C@@H](Cc1ccccc1)C(=O)N[C@@H](C[C@@H]1CCNC1=O)C(=O)C(=O)NCc1ccccc1 [11a] | < 4.30
* CCCC[C@H](NC(=O)/C=C/c1ccccc1)C(=O)N[C@@H](C[C@@H]1CCNC1=O)C(=O)C(=O)NCc1ccccc1 [11o] | < 4.30
